Origin of the recorded values: the supplement of paper PMC10307832

# System: NCI-H2085
# method: relative viability (nuclei count vs DMSO), 5 days (fraction); higher = more cells survive
# experimentalConditions: first compound 0.04 µM
In this section we review reported relative viability values for a set of compounds.
parameterMeasured: relative viability

O=C(O)c1ccc(-c2c[nH]c3ncc(-c4ccccc4)cc23)cc1C1CCCC1 + CC(=O)c1c(C)c2cnc(Nc3ccc(N4CCNCC4)cn3)nc2n(C2CCCC2)c1=O [Palbociclib] (partner 0.5 µM) : 0.448
O=C(O)c1ccc(-c2c[nH]c3ncc(-c4ccccc4)cc23)cc1C1CCCC1 + CC1(C)CCC(c2ccc(Cl)cc2)=C(CN2CCN(c3ccc(C(=O)NS(=O)(=O)c4ccc(N[C@H](CCN5CCOCC5)CSc5ccccc5)c(S(=O)(=O)C(F)(F)F)c4)cc3)CC2)C1 [Navitoclax] (partner 0.5 µM) : 1.06
O=C(O)c1ccc(-c2c[nH]c3ncc(-c4ccccc4)cc23)cc1C1CCCC1 + C[C@]1(O)C[C@@H](c2nc(-c3ccc4ccc(-c5ccccc5)nc4c3)c3c(N)nccn32)C1 [Linsitinib] (partner 1 µM) : 0.938
O=C(O)c1ccc(-c2c[nH]c3ncc(-c4ccccc4)cc23)cc1C1CCCC1 + CC(C)C[C@H](NC(=O)[C@H](Cc1ccccc1)NC(=O)c1cnccn1)B(O)O [Bortezomib] (partner 0.002 µM) : 1.08

----------
In this section we review reported relative viability values for a set of compounds.
# Tested on: NCI-H2009
# method: relative viability (nuclei count vs DMSO), 5 days (fraction); higher = more cells survive
# experimentalConditions: first compound 0.05 µM
parameterMeasured: relative viability

CC1(C)CCC(c2ccc(Cl)cc2)=C(CN2CCN(c3ccc(C(=O)NS(=O)(=O)c4ccc(N[C@H](CCN5CCOCC5)CSc5ccccc5)c(S(=O)(=O)C(F)(F)F)c4)cc3)CC2)C1 [Navitoclax] + COc1cc2c(Oc3ccc(NC(=O)C4(C(=O)Nc5ccc(F)cc5)CC4)cc3F)ccnc2cc1OCCCN1CCOCC1 [Foretinib] (partner 0.25 µM) : 1.26
CC1(C)CCC(c2ccc(Cl)cc2)=C(CN2CCN(c3ccc(C(=O)NS(=O)(=O)c4ccc(N[C@H](CCN5CCOCC5)CSc5ccccc5)c(S(=O)(=O)C(F)(F)F)c4)cc3)CC2)C1 [Navitoclax] + CC(=O)c1c(C)c2cnc(Nc3ccc(N4CCNCC4)cn3)nc2n(C2CCCC2)c1=O [Palbociclib] (partner 0.5 µM) : 0.202
CC1(C)CCC(c2ccc(Cl)cc2)=C(CN2CCN(c3ccc(C(=O)NS(=O)(=O)c4ccc(N[C@H](CCN5CCOCC5)CSc5ccccc5)c(S(=O)(=O)C(F)(F)F)c4)cc3)CC2)C1 [Navitoclax] + N=C(N)NC(=N)NCCc1ccccc1 [Phenformin] (partner 250 µM) : 0.435

----------
# Tested on: NCI-H1355
# method: relative viability (nuclei count vs DMSO), 5 days (fraction); higher = more cells survive
# experimentalConditions: first compound 0.1 µM
Rule: relative viability below 0.5 gives rule met. Equal to or above 0.5 gives rule not met.

NC(=O)Nc1cc(-c2cccc(F)c2)sc1C(=O)N[C@H]1CCCNC1 [AZD7762] + O=C(CCCCCCC(=O)Nc1ccccc1)NO [Vorinostat] (partner 1 µM) : rule not met
NC(=O)Nc1cc(-c2cccc(F)c2)sc1C(=O)N[C@H]1CCCNC1 [AZD7762] + C[C@]1(O)C[C@@H](c2nc(-c3ccc4ccc(-c5ccccc5)nc4c3)c3c(N)nccn32)C1 [Linsitinib] (partner 1 µM) : rule not met
NC(=O)Nc1cc(-c2cccc(F)c2)sc1C(=O)N[C@H]1CCCNC1 [AZD7762] + CC(=O)c1c(C)c2cnc(Nc3ccc(N4CCNCC4)cn3)nc2n(C2CCCC2)c1=O [Palbociclib] (partner 0.5 µM) : rule met
NC(=O)Nc1cc(-c2cccc(F)c2)sc1C(=O)N[C@H]1CCCNC1 [AZD7762] + COc1cccc2cc(-c3nc([C@H]4CC[C@H](C(=O)O)CC4)n4ncnc(N)c34)[nH]c12 [OSI-027] (partner 0.5 µM) : rule not met
NC(=O)Nc1cc(-c2cccc(F)c2)sc1C(=O)N[C@H]1CCCNC1 [AZD7762] + CS(=O)(=O)N1CCN(Cc2cc3nc(-c4cccc5[nH]ncc45)nc(N4CCOCC4)c3s2)CC1 [Pictilisib] (partner 1 µM) : rule met
NC(=O)Nc1cc(-c2cccc(F)c2)sc1C(=O)N[C@H]1CCCNC1 [AZD7762] + Nc1ncn([C@H]2C[C@H](O)[C@@H](CO)O2)c(=O)n1 [Decitabine] (partner 2 µM) : rule met
NC(=O)Nc1cc(-c2cccc(F)c2)sc1C(=O)N[C@H]1CCCNC1 [AZD7762] + COc1cc2c(Oc3ccc(NC(=O)C4(C(=O)Nc5ccc(F)cc5)CC4)cc3F)ccnc2cc1OCCCN1CCOCC1 [Foretinib] (partner 0.25 µM) : rule not met
NC(=O)Nc1cc(-c2cccc(F)c2)sc1C(=O)N[C@H]1CCCNC1 [AZD7762] + CC1(C)CCC(c2ccc(Cl)cc2)=C(CN2CCN(c3ccc(C(=O)NS(=O)(=O)c4ccc(N[C@H](CCN5CCOCC5)CSc5ccccc5)c(S(=O)(=O)C(F)(F)F)c4)cc3)CC2)C1 [Navitoclax] (partner 0.5 µM) : rule not met
NC(=O)Nc1cc(-c2cccc(F)c2)sc1C(=O)N[C@H]1CCCNC1 [AZD7762] + Cc1nc(Nc2ncc(C(=O)Nc3c(C)cccc3Cl)s2)cc(N2CCN(CCO)CC2)n1 [Dasatinib] (partner 0.075 µM) : rule not met
NC(=O)Nc1cc(-c2cccc(F)c2)sc1C(=O)N[C@H]1CCCNC1 [AZD7762] + Nc1nc2[nH]cc(CCc3ccc(C(=O)N[C@@H](CCC(=O)O)C(=O)O)cc3)c2c(=O)[nH]1 [Pemetrexed] (partner 0.2 µM) : rule not met
NC(=O)Nc1cc(-c2cccc(F)c2)sc1C(=O)N[C@H]1CCCNC1 [AZD7762] + CS(=O)(=O)CCNCc1ccc(-c2ccc3ncnc(Nc4ccc(OCc5cccc(F)c5)c(Cl)c4)c3c2)o1 [Lapatinib] (partner 2 µM) : rule not met

----------
# System: NCI-H522
# method: relative viability (nuclei count vs DMSO), 5 days (fraction); higher = more cells survive
# experimentalConditions: first compound 0.8 µM
parameterMeasured: relative viability

Oc1nc(-c2ccc(C(F)(F)F)cc2)nc2c1CSCC2 [XAV939] + N=C(N)NC(=N)NCCc1ccccc1 [Phenformin] (partner 250 µM) : 0.594
C=C1C(=O)O[C@@H](CCCCCCCC)[C@@H]1C(=O)O [C-75] + Nc1nc2[nH]cc(CCc3ccc(C(=O)N[C@@H](CCC(=O)O)C(=O)O)cc3)c2c(=O)[nH]1 [Pemetrexed] (partner 0.2 µM) : 0.828
Oc1nc(-c2ccc(C(F)(F)F)cc2)nc2c1CSCC2 [XAV939] + O=C(CCCCCCC(=O)Nc1ccccc1)NO [Vorinostat] (partner 1 µM) : 0.718
C=C1C(=O)O[C@@H](CCCCCCCC)[C@@H]1C(=O)O [C-75] + N=C(N)NC(=N)NCCc1ccccc1 [Phenformin] (partner 250 µM) : 0.614
C=C1C(=O)O[C@@H](CCCCCCCC)[C@@H]1C(=O)O [C-75] + O=C(c1cc(Cc2n[nH]c(=O)c3ccccc23)ccc1F)N1CCN(C(=O)C2CC2)CC1 [Olaparib] (partner 8 µM) : 0.662
Oc1nc(-c2ccc(C(F)(F)F)cc2)nc2c1CSCC2 [XAV939] + Nc1ncn([C@H]2C[C@H](O)[C@@H](CO)O2)c(=O)n1 [Decitabine] (partner 2 µM) : 0.723
Oc1nc(-c2ccc(C(F)(F)F)cc2)nc2c1CSCC2 [XAV939] + CCNC(=O)c1noc(-c2cc(C(C)C)c(O)cc2O)c1-c1ccc(CN2CCOCC2)cc1 [Luminespib] (partner 0.01 µM) : 1.05

----------
# System: NCI-H2126
# method: relative viability (nuclei count vs DMSO), 5 days (fraction); higher = more cells survive
# experimentalConditions: first compound 0.3162 µM
In this section we review reported relative viability values for a set of compounds.
parameterMeasured: relative viability

NC(=O)Nc1cc(-c2cccc(F)c2)sc1C(=O)N[C@H]1CCCNC1 [AZD7762] + CCNC(=O)c1noc(-c2cc(C(C)C)c(O)cc2O)c1-c1ccc(CN2CCOCC2)cc1 [Luminespib] (partner 0.01 µM) : 0.802
NC(=O)Nc1cc(-c2cccc(F)c2)sc1C(=O)N[C@H]1CCCNC1 [AZD7762] + COc1cccc2cc(-c3nc([C@H]4CC[C@H](C(=O)O)CC4)n4ncnc(N)c34)[nH]c12 [OSI-027] (partner 0.5 µM) : 0.871
NC(=O)Nc1cc(-c2cccc(F)c2)sc1C(=O)N[C@H]1CCCNC1 [AZD7762] + Nc1ncn([C@H]2C[C@H](O)[C@@H](CO)O2)c(=O)n1 [Decitabine] (partner 2 µM) : 0.789
NC(=O)Nc1cc(-c2cccc(F)c2)sc1C(=O)N[C@H]1CCCNC1 [AZD7762] + Cc1nc(Nc2ncc(C(=O)Nc3c(C)cccc3Cl)s2)cc(N2CCN(CCO)CC2)n1 [Dasatinib] (partner 0.075 µM) : 0.648
NC(=O)Nc1cc(-c2cccc(F)c2)sc1C(=O)N[C@H]1CCCNC1 [AZD7762] + Nc1nc2[nH]cc(CCc3ccc(C(=O)N[C@@H](CCC(=O)O)C(=O)O)cc3)c2c(=O)[nH]1 [Pemetrexed] (partner 0.2 µM) : 0.576
NC(=O)Nc1cc(-c2cccc(F)c2)sc1C(=O)N[C@H]1CCCNC1 [AZD7762] + CC(C)C[C@H](NC(=O)[C@H](Cc1ccccc1)NC(=O)c1cnccn1)B(O)O [Bortezomib] (partner 0.002 µM) : 1.2
